Values from the SangsterLogP compilation

# assayComment: method code AS, from DOI: 10.1248/cpb.32.4994, PMID: 6534548
valueKind: logP
When you answer, write just the number.

Given item `O=C(Cc1ccccc1)Nc1ccc(Br)cc1` , the value recorded as its logP is 3.7

---

# assayComment: method code SF-AS, from DOI: 10.1248/cpb.32.4994, PMID: 6534548
Class true: logP at least 3. Class false: logP below 3.

Request: Hello, I need to know if `O=C(Cc1ccccc1)Nc1ccc(F)cc1` has measured logP not below 3. Thanks!
Response: false

Request: Exam item: decide whether the reported logP for `Cc1cccc(NC(=O)Cc2ccccc2)c1` is at least 3.
Response: true

Request: Reported logP reaches at least 3 for `CNc1cccc(NC(=O)Cc2ccccc2)c1` ?
Response: false

Request: Form field: logP at least 3? Entry: `O=C(Cc1ccccc1)Nc1cccc(O)c1`
Response: false

Request: Determine whether this compound has logP no lower than 3: `CC(=O)c1cccc(NC(=O)Cc2ccccc2)c1`
Response: false

Request: Has `O=C(Cc1ccccc1)Nc1ccc(Cl)cc1` a recorded logP greater than or equal to 3?
Response: true

Request: Does `COc1cccc(NC(=O)Cc2ccccc2)c1` have a reported logP of at least 3?
Response: false

Request: Check if logP >= 3 (inclusive). Item: `O=C(Cc1ccccc1)Nc1cccc(F)c1`
Response: true

Request: Does `N#Cc1cccc(NC(=O)Cc2ccccc2)c1` have a reported logP of at least 3?
Response: false
